# System: DAF-12 nuclear receptor (Haemonchus contortus)
# Assay Summary: hcDAF-12 driven luciferase reporter activation – cell-based, luminescence, HEK293, lit1-tk-luc reporter, primary screen (AID 652067)
# Reported Conditions: HEK293 hcDAF-12 lit1-tk-luc reporter, at 6.8 µM, 0% DMSO, 100% Δ7-dafachronic acid
The whole screen tested about 370,000 compounds, of which about 5,400 (1.5%) were called active.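 How the source made its calls: active means activation above the mean of all tested compounds plus 3 SD (cut at about 5.5% in these data); inactive means the rest.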 The sample holds actives, similar compounds and a random draw of the others, so the mix is not that of the screen.
Classes used: y for active, n for inactive

INSERT INTO measurements (compound, group) VALUES
  ('CCc1ccc(-c2nnn(Cc3nc4ccccc4s3)n2)cc1', 'n'),
  ('COc1ccc(C2CC(c3cccs3)=NN2C(=O)COC(=O)c2cc3ccccc3cc2O)cc1OC (stereo not drawn)', 'n'),
  ('Cc1cc(OC(=O)NCCc2ccc(F)cc2)ccc1F', 'n'),
  ('COc1ccccc1C(=O)CSc1nnc(-c2ccccn2)n1-c1ccccc1', 'n'),
  ('COc1cccc(CN2C(=O)CCC2(C)C(=O)NC2CCCCCC2)c1 (stereo not drawn)', 'n'),
  ('Cc1ccccc1CN1CCCCC(NC(=O)Nc2ccccc2F)C1=O (stereo not drawn)', 'n'),
  ('COc1ccc(-c2nnn(Cc3nc(N)nc(N4CCCCC4)n3)n2)cc1', 'n'),
  ('COC(=O)C1[C@H]2SC(C)(C)C(C(=O)OC)N2C(=O)N1Cc1nc2ccccc2s1 (stereo partly drawn)', 'n'),
  ('CCCCn1c(N)c(N(CC(C)C)C(=O)c2cccc(S(=O)(=O)N3CCN(C(C)=O)CC3)c2)c(=O)[nH]c1=O', 'n'),
  ('C[n+]1ccccc1C1CCCC/C1=N\Nc1ccc([N+](=O)[O-])cc1[N+](=O)[O-] (stereo not drawn)', 'y'),
  ('COc1ccc(C2CC(c3cccs3)=NN2C(=O)CSc2nnc(N)s2)cc1OC (stereo not drawn)', 'n'),
  ('COc1ccccc1OCc1nc2ccccc2s1', 'y'),
  ('COC(=O)C12C=C3CC(c4ccccc4)=C3C(=O)N1Cc1[nH]c3ccccc3c1C2 (stereo not drawn)', 'n'),
  ('CCCCn1c(N)c(N(CC(C)C)C(=O)c2cccc(S(=O)(=O)N3CC(C)OC(C)C3)c2)c(=O)[nH]c1=O (stereo not drawn)', 'y'),
  ('FC(F)(F)c1cccc(NC(=S)OC2CCC23CCC(c2ccccc2)CC3)c1 (stereo not drawn)', 'n'),
  ('CN(C)CCNC(=O)c1ccc(-c2cn3c(-c4ccc(Oc5ccccc5)cc4)cnc3cn2)cc1', 'n'),
  ('COCCN(CCOC)S(=O)(=O)c1ccc(C(=O)Nc2nc3c(s2)CCc2ccccc2-3)cc1', 'n'),
  ('O=[N+]([O-])c1ccc(N/N=C2/CCCCC2c2ccccn2)c([N+](=O)[O-])c1 (stereo not drawn)', 'n');
